Ref: patent US6235731A

- Tested on: HepG2 cells
- Protocol: Increase in LDL-binding to HepG2 cells
- Type: cell-based
- Condition Notes: 10 μM test compound, 20 hours, specific human [125I]LDL binding, normalized by protein, read-out: LDL binding (% of control)
Where a name gives a salt, the structure may show the parent alone.
Please provide measured activity at 10 µM for the entries that follow.
One number for each entry, in %.

Study these solved cases before continuing.
Compound	Quantitative Result
O=C(NCCCC1CCN(CCCc2ccccc2)CC1)C1=Cc2cnc3cccc(n23)S1 [Example 46, Dihydrochloride]	166
O=C(NCC1CCN(CCCc2ccc(F)cc2F)CC1)C1=Cc2cnc3cccc(n23)S1 [Example 76, Dihydrochloride]	282
O=C(C=CC1=Cc2cnc3cccc(n23)S1)NCC1CCN(CCCc2ccccc2)CC1 [Example 9, dihydrochloride]	247
O=C(NCCCCN1CCC(c2ccccc2)CC1)C1=Cc2cnc3cccc(n23)S1 [Example 26, Dihydrochloride]	189

For each listed entry, give its activity at 10 µM.
1. O=C(NCC1CCN(CCCOc2ccc(F)cc2)CC1)C1=Cc2cnc3cccc(n23)S1 [Example 113, Dihydrochloride]
2. COc1ccccc1CCCN1CCC(CNC(=O)C2=Cc3cnc4cccc(n34)S2)CC1 [Example 80, Dihydrochloride]
3. O=C(C=CC1=Cc2cnc3cccc(n23)S1)NC1CCN(CCCc2ccccc2)CC1 [Example 10, dihydrochloride]

[140, 248, 169]

* * *

- Tested on: HepG2 cells
- Protocol: Increase in LDL-binding to HepG2 cells
- Type: cell-based
- Condition Notes: 10 μM test compound, 20 hours, specific human [125I]LDL binding, normalized by protein, read-out: LDL binding (% of control)
Structures can show the parent of a compound that is named as a salt.
Value Kind: activity at 10 µM (%)
One number for each entry, in %.

Compound	Quantitative Result
O=C(C1=Cc2cnc3cccc(n23)S1)N(Cc1ccccc1)CC1CCN(CCCc2ccccc2)CC1 [Example 52, Dihydrochloride]	183
O=C(NCC1CCN(C[C@H]2COc3ccccc3O2)CC1)C1=Cc2cnc3cccc(n23)S1	172
O=C(NCC1CCN(CCCc2ccccc2F)CC1)C1=Cc2cnc3cccc(n23)S1 [Example 67, Dihydrochloride]	162
O=C(NCC1CCN(CCCc2ccccc2)CC1)C1=Cc2cnc3cccc(n23)S1 [Example 22, Dihydrochloride]	126
O=C(NC1CCN(CCCc2ccccc2)CC1)C1=Cc2cnc3cccc(n23)S1 [Example 36, Dihydrochloride]	218
O=C(NCC1CCN(CCCOc2ccc(F)cc2F)CC1)C1=Cc2cnc3cccc(n23)S1 [Example 117, Dihydrochloride]	137
O=C(NCC1CCN(C[C@@H]2COc3ccccc3O2)CC1)C1=Cc2cnc3cccc(n23)S1 [Example 1, dihydrochloride]	203
O=C(NCCCCN1CCC(Cc2ccccc2)CC1)C1=Cc2cnc3cccc(n23)S1 [Example 28, Dihydrochloride]	194
O=C(NCCCN1CCC(c2ccccc2)CC1)C1=Cc2cnc3cccc(n23)S1 [Example 27, Dihydrochloride]	168
O=C(NCC1CCN(CCCc2ccccc2Cl)CC1)C1=Cc2cnc3cccc(n23)S1 [Example 77, Dihydrochloride]	168

Let us move to another entry and its activity at 10 µM.
The compound listed as O=C(NCC1CCN(CC2COc3ccccc3O2)CC1)C1=Cc2cnc3cccc(n23)S1 (centres unmarked) [Example 3, dihydrochloride] shows activity at 10 µM equal to 194
